Below, each entry is listed with its recorded pKi.
molecular target: nicotinic receptors Rα7 (Rattus norvegicus, UniProt Q05941); assay: biochemical; type: binding; settings: rat frontal cortex membranes, [125I]α-bungarotoxin 2 nM, 22° C., 3 hours; Ki calculated from IC50 (Cheng and Prussof); read-out: Activity on Rα7
Sequence (Q05941 23-502): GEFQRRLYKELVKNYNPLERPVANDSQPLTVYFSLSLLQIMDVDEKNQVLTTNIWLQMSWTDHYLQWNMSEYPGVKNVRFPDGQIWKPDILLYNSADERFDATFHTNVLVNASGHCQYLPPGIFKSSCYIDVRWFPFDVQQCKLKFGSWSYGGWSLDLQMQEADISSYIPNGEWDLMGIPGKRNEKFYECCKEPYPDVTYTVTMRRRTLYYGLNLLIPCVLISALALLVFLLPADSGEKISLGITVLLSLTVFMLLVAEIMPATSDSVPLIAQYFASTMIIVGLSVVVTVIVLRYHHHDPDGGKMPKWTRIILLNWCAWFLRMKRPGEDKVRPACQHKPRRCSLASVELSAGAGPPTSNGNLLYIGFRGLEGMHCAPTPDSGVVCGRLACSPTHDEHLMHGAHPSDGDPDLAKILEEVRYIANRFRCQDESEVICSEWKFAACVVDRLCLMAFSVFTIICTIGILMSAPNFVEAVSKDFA
pKi: −log10 of the molar value.
metric_name: pKi

                                    compound  measured_result
 0  COc1ccc2cc(-c3cn([C@H]4CN5CCC4CC5)nn3)ccc2c1 [Compound 49]             6.71
 1  Fc1cccc(-c2cn([C@H]3CN4CCC3CC4)nn2)c1 [Compound 43]             8.00
 2  Fc1ccc(-c2cn([C@H]3CN4CCC3CC4)nn2)cn1 [Compound 51]             6.33
 3  Fc1ccc(-c2cn([C@@H]3CN4CCC3CC4)nn2)cc1 [Compound 57]             6.94
 4  c1csc(-c2cn([C@H]3CN4CCC3CC4)nn2)c1 [Compound 53]             8.02
 5  CN1CCN(Cc2ccc(-c3ccc(-c4cn([C@H]5CN6CCC5CC6)nn4)s3)cc2)CC1 [Compound 104]             9.52
 6  OCc1cccc(-c2csc(-c3cn([C@H]4CN5CCC4CC5)nn3)c2)c1 [Compound 89]             7.89
 7  Fc1ccc(-c2cccc(-c3cn([C@H]4CN5CCC4CC5)nn3)c2)cn1 [Compound 100]             7.80
 8  COc1ccc(-c2cn([C@H]3CN4CCC3CC4)nn2)cn1 [Compound 52]             6.98
 9  FCc1ccc(-c2ccc(-c3cn([C@H]4CN5CCC4CC5)nn3)s2)cc1 [Compound 112]             8.30
10  OCc1ccc(-c2ccc(-c3cn([C@H]4CN5CCC4CC5)nn3)s2)cc1 [Compound 63]             9.22
11  c1cc2cc(-c3cn([C@H]4CN5CCC4CC5)nn3)ccc2s1 [Compound 55]             7.72
12  FC1(c2cn(-c3ccc(Br)cc3)nn2)CN2CCC1CC2 (stereo not shown) [Compound 71]             6.82
13  Clc1ccc(-c2cn([C@H]3CN4CCC3CC4)nn2)cc1 [Compound 39]             8.10
14  c1coc(-c2ccc(-c3cn([C@H]4CN5CCC4CC5)nn3)s2)c1 [Compound 62]             8.00
15  c1cc(-c2ccc(-c3cn([C@H]4CN5CCC4CC5)nn3)s2)ccc1CN1CCOCC1 [Compound 102]             9.05
16  Clc1ccc(-c2cn([C@H]3CN4CCC3CC4)nn2)cc1Cl [Compound 40]             7.72
17  OCc1cccc(-c2cccc(-c3cn([C@H]4CN5CCC4CC5)nn3)c2)c1 [Compound 99]             8.85
18  c1ccc(-c2cn([C@H]3CN4CCC3CC4)nn2)cc1 [Compound 37]             8.10

====

molecular target: nicotinic receptors Rα7 (Rattus norvegicus); test: biochemical; type: binding
metric_name: Ki (nM)

>>> print(df.to_string())
                                 smiles_repr  unit_tag  measured_result
 0  CN1[C@@H]2CC[C@H]1C[C@@H](n1cc(-c3ccc(Cl)c(Cl)c3)nn1)C2        nM              110
 1  CN1[C@@H]2CC[C@H]1C[C@@H](n1cc(-c3cccc(F)c3)nn1)C2        nM               16
 2  OCc1ccc(-c2cccc(-c3cn([C@H]4CN5CCC4CC5)nn3)c2)cc1        nM              105
 3     Brc1ccc(-c2cn([C@H]3CN4CCC3CC4)nn2)s1        nM               13
 4  O=Cc1ccc(-c2cccc(-c3cn([C@H]4CN5CCC4CC5)nn3)c2)s1        nM                7
 5       Nc1c(-c2ccccc2)nnn1[C@H]1CN2CCC1CC2        nM               11
 6  COc1ccc(-c2cn([C@H]3C[C@H]4CC[C@@H](C3)N4C)nn2)cc1        nM              283
 7  CN1[C@@H]2CC[C@H]1C[C@@H](n1cc(-c3ccc(F)cc3)nn1)C2        nM              210
 8  OCc1ccc(-c2cccc(-c3cn([C@H]4CN5CCC4CC5)nn3)c2)s1        nM              0.5
 9  OCc1ccc(-c2coc(-c3cn([C@H]4CN5CCC4CC5)nn3)c2)cc1        nM                9
10    Brc1cccc(-c2cn([C@H]3CN4CCC3CC4)nn2)c1        nM               11
11  OCc1cccc(-c2coc(-c3cn([C@H]4CN5CCC4CC5)nn3)c2)c1        nM              115
12  CN1[C@@H]2CC[C@H]1C[C@@H](n1cc(-c3ccc4occc4c3)nn1)C2        nM               13
13  Fc1ccc(-c2coc(-c3cn([C@H]4CN5CCC4CC5)nn3)c2)cn1        nM              117
14  OCc1ccc(-c2ccc(-c3cn([C@H]4CN5CCC4CC5)nn3)cc2)s1        nM              160
15  CN1[C@@H]2CC[C@H]1C[C@@H](n1cc(-c3ccc(Br)s3)nn1)C2        nM              275
16  c1csc(-c2ccc(-c3cn([C@H]4CN5CCC4CC5)nn3)cc2)c1        nM              135
17  CN1[C@@H]2CC[C@H]1C[C@@H](n1cc(-c3ccccc3)nn1)C2        nM              168
18  OCc1ccc(-c2ccc(-c3cn([C@H]4CN5CCC4CC5)nn3)o2)cc1        nM                6
19  CN1[C@@H]2CC[C@H]1C[C@@H](n1cc(-c3ccc4sccc4c3)nn1)C2        nM               14
20  OCc1ccc(-c2ccc(-c3cn([C@H]4CN5CCC4CC5)nn3)cc2)cc1        nM              137
21  COC(=O)c1ccc(-c2ccc(-c3cn([C@H]4CN5CCC4CC5)nn3)s2)cc1F        nM               85
22    Brc1ccc(-c2cn([C@H]3CN4CCC3CC4)nn2)cc1        nM                6
